Value source: patent US6914045B2

# System: Staphylococcus sp.
# ASSAY_METHOD_TEXT: in vitro antibacterial evaluation, MIC by broth dilution
# Format: cell-based
# DETAILS: broth dilution, 18 hours at 35° C.; strain GC 4544
Catalogue of MIC Staphylococcus aureus (GC 4544) values
Give the number; µg/mL is assumed, so skip it.

Illustrative cases are given below, each with its answer.
MOLECULE	MEASURED_VALUE
CC(c1ccccc1)C1NC(=O)CNC(=O)C(CO)NC(=O)C(C(O)C2CNC(=N)N2C2OC(CO)C(O)C(O)C2O)NC(=O)C(C(O)C2CNC(=N)N2)NC(=O)C(Cc2ccc(OC3OC(CO)C(OC4OC5COC(CC6CCCCC6)OC5C(O)C4O)C(O)C3O)cc2)NC1=O (stereo not shown) [Example 122]	1
CC=C(C)C(=O)OC1C(CO)OC(OC2C(CO)OC(Oc3ccc(CC4NC(=O)C(C(C)c5ccccc5)NC(=O)CNC(=O)C(CO)NC(=O)C(C(O)C5CNC(=N)N5C5OC(CO)C(O)C(O)C5O)NC(=O)C(C(O)C5CNC(=N)N5)NC4=O)cc3)C(O)C2O)C(O)C1O (stereo not shown) [Example 278b]	8

input: Query (molecule): CC(c1ccccc1)C1NC(=O)CNC(=O)C(CO)NC(=O)C(C(O)C2CNC(=N)N2C2OC(CO)C(O)C(O)C2O)NC(=O)C(C(O)C2CNC(=N)N2)NC(=O)C(Cc2ccc(OC3OC(CO)C(OC4OC5COC(c6ccsc6)OC5C(O)C4O)C(O)C3O)cc2)NC1=O (stereo not shown) [Example 133] ; field requested: MIC Staphylococcus aureus (GC 4544)
output: 2

input: Okay, and CC(C)CC(=O)OC1C(O)C(CO)OC(OC2C(CO)OC(Oc3ccc(CC4NC(=O)C(C(C)c5ccc(Cl)cc5)NC(=O)CNC(=O)C(CO)NC(=O)C(C(O)C5CNC(=N)N5C5OC(CO)C(O)C(O)C5O)NC(=O)C(C(O)C5CNC(=N)N5)NC4=O)cc3)C(O)C2O)C1O (stereo not shown) [Example 262b] ?
output: 4
